Kindly state IC50 for each of the entries shown.
target: histone deacetylase activity (HeLa nuclear extract); experiment: HDAC fluorescent activity assay (Fluor de Lys, Biomol); type: biochemical; conditions: IC50 allocated to ranges, read-out: HDAC activity

Some compounds with recorded IC50:
Compound	Result
O=C(/C=C/c1ccc(CN[C@@H](C(=O)OC2CCCC2)c2ccccc2)cc1)NO	101 to 1000 nM
CC(C)C[C@H](NCc1ccc(CCC(=O)NO)nc1)C(=O)OC(C)(C)C	< 100 nM
O=C(/C=C/c1ccc(CN2CCC(CN[C@H](C(=O)OC3CCCC3)c3ccccc3)CC2)cc1)NO	< 100 nM
CC(C)C[C@H](NCCCOc1ccc(/C=C/C(=O)NO)cc1)C(=O)OC1CCCC1	101 to 1000 nM
O=C(CCc1ccc(CN[C@H](C(=O)OC2CCCC2)c2ccccc2)cc1)NO	101 to 1000 nM
O=C(/C=C/c1ccc(CN2CCC(N[C@H](C(=O)OC3CCCC3)C3CCCCC3)CC2)cc1)NO	101 to 1000 nM
O=C(/C=C/c1cccc(CNCC2CCC(CN[C@H](C(=O)O)C3CCCCC3)CC2)c1)NO (stereo partly shown)	> 1000 nM
CC(N[C@H](C(=O)O)C1CCCCC1)c1ccc(/C=C/C(=O)NO)cc1 (stereo partly shown)	< 100 nM
CC(C)[C@@H]1CC[C@@H](C)C[C@H]1OC(=O)[C@@H](NCc1ccc(CCC(=O)NO)cc1)C1CCCCC1	> 1000 nM
O=C(/C=C/c1ccc(CN[C@H](C(=O)O)C2CCCCC2)cn1)NO	< 100 nM

Give IC50 for all compounds that follow.
1. O=C(/C=C/c1ccc(CN[C@H](C(=O)OCc2ccccc2)C2CCCCC2)cc1)NO
2. CC(C)[C@H](NCc1ccc(CCC(=O)NO)cc1)C(=O)O
3. O=C(/C=C/c1cccc(S(=O)(=O)N[C@H](C(=O)OC2CCCC2)c2ccccc2)c1)NO
4. O=C(CCc1cccc(CN[C@H](C(=O)OC2CCCC2)C2CCCCC2)c1)NO
5. O=C(CCc1ccc(CN[C@H](C(=O)O)C2CCCCC2)cc1)NO
6. CC(C)C[C@@H](NCc1ccc(/C=C/C(=O)NO)cc1)C(=O)O
7. CN(C)CCOC(=O)[C@@H](NCc1ccc(/C=C/C(=O)NO)nc1)C1CCCCC1

[out]
1: < 100 nM; 2: > 1000 nM; 3: 101 to 1000 nM; 4: 101 to 1000 nM; 5: 101 to 1000 nM; 6: 101 to 1000 nM; 7: < 100 nM

Give IC50 for all compounds that follow.
1. CC(C)(C)OC[C@@H](NCc1ccc(/C=C/C(=O)NO)cc1)C(=O)OC1CCCC1
2. CC[C@H](C)[C@H](NCc1ccc(CCC(=O)NO)cc1)C(=O)OC(C)(C)C

[out]
1: 101 to 1000 nM; 2: 101 to 1000 nM

Data provenance is patent US9273003B2.
